Assignment: determine reported IC50 for the given molecules.
TARGET_OF_ASSAY: recombinant human CRTH2 receptor (Homo sapiens)
Construct: expressed in transfected cells
TEST_METHOD_NOTES: GTPγS binding assay
Assay type: biochemical
STATED_CONDITIONS: +HSA (0.2% human serum albumin), 80 nM PGD2, CHO cell membranes; read-out: hDP2 GTPγS μM (+HSA)

-- ask // lookup IC50 for COc1ccc(CC(=O)O)cc1-c1ccc(C(F)(F)F)cc1CN(CCO)C(C)=O
-- reply 0.3 to 1 µM

-- ask // lookup IC50 for CCN(Cc1cc(C(F)(F)F)ccc1-c1ccc(Cl)c(CC(=O)O)c1)C(=O)OCc1ccccc1
-- reply 0.3 to 1 µM

-- ask // lookup IC50 for CCN(Cc1cc(C(F)(F)F)ccc1-c1cc(CC(=O)O)ccc1OC)C(=O)C[S+]([O-])c1ccccc1 (stereo not shown)
-- reply < 0.3 µM

-- ask // lookup IC50 for COc1ccc(CC(=O)O)cc1-c1ccc(C(F)(F)F)cc1CN(CC(N)=O)C(C)=O
-- reply 0.3 to 1 µM

---

TARGET_OF_ASSAY: human DP2 receptor (Homo sapiens)
Sequence (Q9Y5Y4 1-395): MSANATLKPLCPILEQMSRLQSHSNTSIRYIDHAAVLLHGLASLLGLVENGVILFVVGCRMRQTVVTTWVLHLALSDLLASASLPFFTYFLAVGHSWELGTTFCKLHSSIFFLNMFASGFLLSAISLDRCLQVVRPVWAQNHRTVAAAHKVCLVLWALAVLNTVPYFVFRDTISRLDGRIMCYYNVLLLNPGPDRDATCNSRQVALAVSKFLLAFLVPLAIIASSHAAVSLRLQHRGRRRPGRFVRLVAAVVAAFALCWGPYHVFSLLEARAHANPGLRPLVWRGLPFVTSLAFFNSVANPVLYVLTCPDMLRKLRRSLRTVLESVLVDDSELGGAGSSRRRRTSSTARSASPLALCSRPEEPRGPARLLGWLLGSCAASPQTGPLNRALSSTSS
pIC50: −log10 of the molar value.
ENDPOINT: pIC50

-- ask // lookup pIC50 for CCN(Cc1cc(C(F)(F)F)ccc1-c1cc(CC(=O)O)cc(C(F)(F)F)c1)C(=O)OCc1ccc(F)cc1
-- reply > 6.52

-- ask // lookup pIC50 for CCN(Cc1cc(C(F)(F)F)ccc1-c1cc(CC(=O)O)ccc1OC)C(=O)NCc1ccncc1
-- reply > 6.52

-- ask // lookup pIC50 for COc1ccc(CC(=O)O)cc1-c1ccc(C(F)(F)F)cc1CN(C(C)=O)[C@H]1CCc2ccccc21
-- reply > 6.52

-- ask // lookup pIC50 for CCN(Cc1cc(C(F)(F)F)ccc1-c1cc([C@H](C)C(=O)O)cc(C(F)(F)F)c1)C(=O)NCc1ccccc1
-- reply > 6.52

-- ask // lookup pIC50 for CCOc1ccc(-c2ccc(-c3cc(CC(=O)O)ccc3OC)c(CN(CC)C(=O)CCc3ccccc3)c2)cn1
-- reply > 6.52

-- ask // lookup pIC50 for CCN(Cc1cccc(OC)c1-c1cccc(CC(=O)O)c1)C(=O)OCc1ccccc1
-- reply > 6.52

-- ask // lookup pIC50 for COc1ccc(CC(=O)O)cc1-c1ccc(C(F)(F)F)cc1CN(CC(N)=O)C(C)=O
-- reply 6.00 to 6.52

---

Assignment: determine reported IC50 for the given compounds.
TARGET_OF_ASSAY: recombinant human CRTH2 receptor (Homo sapiens)
Construct: expressed in transfected cells
TEST_METHOD_NOTES: GTPγS binding assay
Assay type: biochemical
STATED_CONDITIONS: +HSA (0.2% human serum albumin), 80 nM PGD2, CHO cell membranes; read-out: hDP2 GTPγS μM (+HSA)

-- ask // lookup IC50 for COc1ccc(CC(=O)O)cc1-c1ccc(C(F)(F)F)cc1CN(CC(C)(C)C)C(C)=O [Compound 1-3]
-- reply < 0.3 µM

-- ask // lookup IC50 for CCN(Cc1cc(C(F)(F)F)ccc1-c1cc(C(C)C(=O)O)ccc1OC)C(C)=O (stereo not drawn) [Compound 1-21]
-- reply < 0.3 µM

-- ask // lookup IC50 for CCN(Cc1cc(C(F)(F)F)ccc1-c1cc([C@@H](C)C(=O)O)cc(C(F)(F)F)c1)C(=O)C1CC1 [Compound 1-237]
-- reply < 0.3 µM

-- ask // lookup IC50 for CCN(Cc1cc(C(F)(F)F)ccc1-c1cc(CC(=O)O)ccc1OC)S(=O)(=O)c1ccc(Cl)cc1 [Compound 1-100]
-- reply 1 to 30 µM

-- ask // lookup IC50 for CCN(Cc1cc(C(F)(F)F)ccc1-c1cc(CC(=O)O)ccc1OC)C(=O)CS(=O)(=O)c1ccccc1 [Compound 1-120]
-- reply < 0.3 µM

-- ask // lookup IC50 for CCN(Cc1cc(C(F)(F)F)ccc1-c1cc(CC(=O)O)ccc1OC)C(=O)N1CCCC1 [Compound 1-97]
-- reply < 0.3 µM

-- ask // lookup IC50 for COc1ccc(CC(=O)O)cc1-c1ccc(C(F)(F)F)cc1CN(C(C)=O)[C@@H]1CCc2ccccc21 [Compound 1-13]
-- reply 0.3 to 1 µM

-- ask // lookup IC50 for CCN(Cc1cc(C(F)(F)F)ccc1-c1cc(CC(=O)O)ccc1OC)C(=O)C1(c2ccc(Cl)cc2Cl)CC1 [Compound 1-131]
-- reply < 0.3 µM

-- ask // lookup IC50 for CCN(Cc1cc(C(F)(F)F)ccc1-c1cc(CC(=O)O)ccc1OC)/C(=N/C#N)NCc1ccccc1 [Compound 1-111]
-- reply < 0.3 µM

-- ask // lookup IC50 for CCN(Cc1cc(C(F)(F)F)ccc1-c1cc(CC(=O)O)ccc1OC)C(=O)Nc1ccccc1 [Compound 1-121]
-- reply < 0.3 µM

-- ask // lookup IC50 for CCN(Cc1cccc(OC)c1-c1cccc(CC(=O)O)c1)C(=O)OCc1ccccc1 [Compound 1-122]
-- reply 1 to 30 µM

-- ask // lookup IC50 for CCN(Cc1cc(C(F)(F)F)ccc1-c1cc(CC(=O)O)ccc1OCc1ccccc1)C(=O)OCc1ccccc1 [Compound 1-128]
-- reply < 0.3 µM

-- ask // lookup IC50 for CCN(Cc1cc(C(F)(F)F)ccc1-c1cc(CC(=O)O)ccc1OC)/C(=N/C#N)NCC(C)(C)C [Compound 1-113]
-- reply < 0.3 µM

-- ask // lookup IC50 for CCN(Cc1cc(C(F)(F)F)ccc1-c1cc(Cl)cc(CC(=O)O)c1)C(=O)OCc1ccccc1 [Compound 1-108]
-- reply < 0.3 µM

-- ask // lookup IC50 for COCCN(Cc1cc(C(F)(F)F)ccc1-c1cc(CC(=O)O)ccc1OC)C(C)=O [Compound 1-6]
-- reply < 0.3 µM

The origin of these recorded values is patent US8067445B2.
